- testedOn: T1, Human CHIP (carboxyl terminus of Hsc70 interacting protein) (human, UniProt Q9UNE7 1-303)
- T1 sequence (looked up): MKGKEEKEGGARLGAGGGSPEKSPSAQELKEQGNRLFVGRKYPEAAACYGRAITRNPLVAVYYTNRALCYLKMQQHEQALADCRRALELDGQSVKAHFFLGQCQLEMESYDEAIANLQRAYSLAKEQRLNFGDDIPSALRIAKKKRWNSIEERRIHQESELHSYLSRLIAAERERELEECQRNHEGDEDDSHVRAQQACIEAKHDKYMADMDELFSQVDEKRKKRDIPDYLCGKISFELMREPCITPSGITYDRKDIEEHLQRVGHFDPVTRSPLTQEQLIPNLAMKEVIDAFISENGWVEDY
- assayMethodText: fluorescence polarisation
Where no end group is shown, it is not given here. 5‑Fam = 5-carboxyfluorescein; Ahx = NCCCCCC(=O)O
observable: Kd (nM)

[[record]]
binder = "{5‑Fam-Ahx}-GSGPTIEEVD [Hsp72 C-terminal tracer (Fam-GSGPTIEEVD)]"
observable = "Kd"
unitofmeasurement = "nM"
endpointresult = 510

